B1: NELF-E aptamer (parent)
chain: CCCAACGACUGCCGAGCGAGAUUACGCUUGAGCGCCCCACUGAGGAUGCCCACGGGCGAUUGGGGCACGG

Variants of: B1
ASSAY_PROTOCOL: HiTS-RAP
SETUP_CONDITIONS: with NELF-E (Drosophila)
READOUT_LABEL: pKd
When answering, recall that pKd equals minus log10 of the concentration in mol/L, and write that number alone.

{"MUTATION_ID": "A15U A24G", "pKd": 8.16}

Exercise: Annotate the variant C9G G62U with its measured pKd.
Key: 8.00

Exercise: Annotate the variant C9G U28G with its measured pKd.
Key: 8.17

Exercise: Annotate the variant G14U A67G with its measured pKd.
Key: 8.17

Exercise: Annotate the variant G11A A19G with its measured pKd.
Key: 8.16

Exercise: Annotate the variant G11U G20U with its measured pKd.
Key: 8.15
